biological target: human TYK2 (JH2domain-pseudokinase) (Homo sapiens (Human), UniProt P29597); experiment: TYK2 JH2 Domain Binding Assay (KINOMEscan)
Sequence (P29597 556-888): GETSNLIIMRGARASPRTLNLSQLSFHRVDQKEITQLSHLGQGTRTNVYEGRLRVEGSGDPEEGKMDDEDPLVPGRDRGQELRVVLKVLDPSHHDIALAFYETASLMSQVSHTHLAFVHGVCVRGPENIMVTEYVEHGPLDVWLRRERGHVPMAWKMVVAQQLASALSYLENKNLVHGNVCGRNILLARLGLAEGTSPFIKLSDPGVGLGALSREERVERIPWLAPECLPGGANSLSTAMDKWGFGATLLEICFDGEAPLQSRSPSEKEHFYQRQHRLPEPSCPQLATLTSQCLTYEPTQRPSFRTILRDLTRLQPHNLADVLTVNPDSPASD
pKd: −log10 of the molar value.
property-measured: pKd

| molecule | value-reported |
| --- | --- |
| [2H]C([2H])([2H])Oc1ncccc1Nc1cc(NC)n2ncc(C(=O)N[C@H]3CC[C@@H]3O)c2n1 [I-411] | > 9.70 |
| CNc1cc(Nc2cccn(-c3cccc(F)c3)c2=O)nc2c(C(=O)N[C@H]3CC[C@H]3O)cnn12 [I-1004] | > 9.70 |
| CNc1cc(Nc2cccnc2OC)nc2c(C(=O)N[C@@H]3CC[C@@H](O)C3)cnn12 [I-488] | > 9.70 |
| CNc1cc(Nc2cc(F)cc(F)c2F)nc2c(C(=O)NC3CC3)cnn12 [I-5] | > 9.70 |
| CNc1cc(Nc2cccn(-c3cnc(C(=O)N(C)C)cn3)c2=O)nc2c(C(=O)NC3CC3)cnn12 [I-127] | > 9.70 |
| CNc1cc(-c2cn(C(C)C)c3ncc(Cl)cc23)nc2c(C(=O)NC3CCC3)cnn12 [I-273] | 8.00 to 9.00 |
| CNc1cc(Nc2cccn([C@@H]3CCC[C@H](C#N)C3)c2=O)nc2c(C(=O)NC3CC3)cnn12 [I-1244] | > 9.70 |
| COc1ncccc1Nc1cc(NC2CC2)n2ncc(C(=O)N[C@@H]3C[C@@H]3F)c2n1 [I-337] | 9.00 to 9.70 |

###

Measured Kd, listed per entry for reference.
molecular target: human TYK2 (JH2domain-pseudokinase) (Homo sapiens (Human)); experiment: TYK2 JH2 Domain Binding Assay (KINOMEscan)
property-measured: Kd

| molecule | value-reported |
| --- | --- |
| CNc1cc(Nc2cccn(-c3ccc(OC)cn3)c2=O)nc2c(C(=O)NC3CC3)cnn12 | 0.2 to 1 nM |
| CNc1cc(Nc2cccc([C@H]3CCCOC3)n2)nc2c(C(=O)N[C@@H]3CC[C@@H]3O)cnn12 [I-641] | 0.2 to 1 nM |
| CNc1cc(Nc2cccn(-c3ccn(C4CC4)n3)c2=O)nc2c(C(N)=O)cnn12 | < 0.2 nM |
| CNc1cc(Nc2cccn(-c3cc(C)n(C)n3)c2=O)nc2c(C(=O)NC3CCC3)cnn12 | < 0.2 nM |
| CNc1cc(Nc2cccn(-c3ccnc(C)n3)c2=O)nc2c(C(=O)NC3CC3)cnn12 | < 0.2 nM |
| CNc1cc(Nc2cccn([C@@H]3CCCC[C@@H]3OC)c2=O)nc2c(C(=O)N[C@@H]3C[C@@H]3F)cnn12 | 1 to 10 nM |
| CNc1cc(Nc2cc(Cl)cn([C@H]3CCCOC3)c2=O)nc2c(C(=O)NC3CC3)cnn12 | < 0.2 nM |
| CNc1cc(Nc2cccn(C3CCN(C)CC3)c2=O)nc2c(C(=O)N[C@@H]3CC[C@@H]3O)cnn12 [I-609] | < 0.2 nM |

###

biological target: human TYK2 (JH2domain-pseudokinase) (Homo sapiens (Human), UniProt P29597); assay: TYK2 JH2 Domain Binding Assay (KINOMEscan)
pKd: −log10 of the molar value.

| molecule | pKd |
| --- | --- |
| CNc1cc(Nc2cccn([C@H]3CCCC[C@H]3O)c2=O)nc2c(C(=O)N[C@@H]3CC[C@H]3OC)cnn12 [I-1057] | > 9.70 |
| CNc1cc(Nc2cc(F)cnc2OC2CC2)nc2c(C(=O)N[C@H]3C[C@H]3F)cnn12 [I-275] | > 9.70 |
| CNc1cc(Nc2cc(F)cn(-c3ccn(C)n3)c2=O)nc2c(C(=O)NC3CC3)cnn12 [I-378] | > 9.70 |
| CNc1cc(Nc2cccn(C3CCOCC3)c2=O)nc2c(C(=O)N[C@@H]3CCC[C@@H](O)C3)cnn12 [I-1226] | 8.00 to 9.00 |
| CNc1cc(Nc2cccn(C3CCN(C)CC3)c2=O)nc2c(C(=O)N[C@H]3CC[C@H]3O)cnn12 [I-689] | 9.00 to 9.70 |
| CNc1cc(Nc2cc(C)nc(N3CCCC3)c2)nc2c(C(N)=O)cnn12 [I-27] | 8.00 to 9.00 |
| CNc1cc(Nc2cccnc2OC2CCOCC2)nc2c(C(=O)N[C@H]3C[C@H]3F)cnn12 [I-174] | > 9.70 |
| CNc1cc(-c2cn(CCN3CCCCC3)c3ncccc23)nc2c(C(=O)N[C@@H]3CC[C@@H]3O)cnn12 [I-793] | > 9.70 |
| [2H]C([2H])([2H])Oc1ncccc1Nc1cc(NC)n2ncc(C(=O)NCCC3(O)CC3)c2n1 [I-470] | > 9.70 |
| CNc1cc(Nc2cccn([C@@H]3CC[C@H]3O)c2=O)nc2c(C(=O)N[C@@H]3C[C@@H]3F)cnn12 [I-999] | > 9.70 |
| CNc1cc(Nc2cccn([C@@H]3CCCOC3)c2=O)nc2c(C(=O)N[C@H]3[C@@H]4COC[C@@H]43)cnn12 [I-650] | 8.00 to 9.00 |
| CNc1cc(Nc2cccn([C@@H]3CCC[C@@H](OC)C3)c2=O)nc2c(C(=O)N[C@H]3CC[C@@H]3OC)cnn12 [I-1331] | 8.00 to 9.00 |
| CNc1cc(Nc2cccnc2OC2CCCCC2)nc2c(C(=O)N[C@H]3C[C@H]3F)cnn12 [I-227] | 9.00 to 9.70 |
| CNc1cc(Nc2cccn(-c3cccc(F)c3)c2=O)nc2c(C(=O)NC[C@@H](C)CO)cnn12 [I-1033] | > 9.70 |
| CNc1cc(-c2cn(CCCO)c3ncc(F)cc23)nc2c(C(=O)N[C@H]3CC[C@@H]3OC)cnn12 [I-1230] | 9.00 to 9.70 |
| CNc1cc(Nc2cc(C)cc(C)c2)nc2c(C(N)=O)cnn12 [I-2] | > 9.70 |
| CNc1cc(Nc2cc(C)cn(-c3ccn(C)n3)c2=O)nc2c(C(=O)NC3CC3)cnn12 [I-271] | 9.00 to 9.70 |
| CNc1cc(Nc2cccnc2OC)nc2c(C(=O)N[C@H]3CCC[C@@H]3O)cnn12 [I-449] | 9.00 to 9.70 |
| CNc1cc(Nc2cccnc2OC2CC2)nc2c(C(=O)N[C@@H]3CCC[C@H]3O)cnn12 (stereo in doubt) [I-424] | > 9.70 |
| CNc1cc(Nc2cccn([C@@H]3CC[C@H]3OC)c2=O)nc2c(C(=O)N[C@@H]3C[C@@H]3F)cnn12 [I-1022] | > 9.70 |
| CNc1cc(Nc2cccn([C@H]3CC[C@H](OC)CC3)c2=O)nc2c(C(=O)NC[C@H](C)CO)cnn12 [I-829] | > 9.70 |
| CNc1cc(Nc2cccn([C@@H]3CCC[C@@H](OC)C3)c2=O)nc2c(C(=O)NC3CC3)cnn12 [I-1026] | > 9.70 |
| CNc1cc(Nc2cc(Cl)cn([C@@H]3CCCOC3)c2=O)nc2c(C(=O)N[C@@H]3C[C@@H]3F)cnn12 [I-773] | > 9.70 |
| CNc1cc(Nc2cccn([C@@H]3CCCC[C@@H]3O)c2=O)nc2c(C(=O)N[C@H]3CC[C@@H]3OC)cnn12 [I-1338] | 9.00 to 9.70 |
| CNc1cc(Nc2cccn(-c3ncccc3F)c2=O)nc2c(C(=O)NC[C@H](C)CO)cnn12 [I-868] | > 9.70 |
| CNc1cc(Nc2cccnc2OC(F)F)nc2c(C(=O)NC3CCC3)cnn12 [I-151] | > 9.70 |
| CNc1cc(Nc2cccnc2OC2CN(CC(F)(F)F)C2)nc2c(C(=O)NC3CC3)cnn12 [I-367] | 9.00 to 9.70 |
| CNc1cc(-c2nn(CCN3CCN(C)CC3)c3ncccc23)nc2c(C(=O)N[C@H]3C[C@H]3F)cnn12 [I-480] | 9.00 to 9.70 |
| CNc1cc(Nc2cccc3ocnc23)nc2c(C(=O)NC3CC3)cnn12 [I-591] | > 9.70 |
| CNc1cc(Nc2cccn([C@H]3CC[C@H]3O)c2=O)nc2c(C(=O)NC3CC3)cnn12 [I-1103] | 8.00 to 9.00 |
| CNc1cc(Nc2cccn(C3CCCCC3)c2=O)nc2c(C(=O)N[C@H]3CC[C@H]3O)cnn12 [I-942] | > 9.70 |
| CNc1cc(Nc2cccn([C@H]3CCC[C@@H](OC)C3)c2=O)nc2c(C(=O)NCC3(CO)CC3)cnn12 (racemic) [I-862] | 9.00 to 9.70 |
